Test system: Mycobacterium tuberculosis Erdman (autoluminescent)
Experiment: AUC25, normalised area under dose response up to IC25 (three-drug combination) (fraction (0-1)); higher = more potent at low dose
Details: in vitro model: valerate; time point: constant (~7 days, model-specific)
measurement_label: AUC25

Example results:
CC[C@@H](CO)NCCN[C@@H](CC)CO [ethambutol] + CC(=O)NC[C@H]1CN(c2ccc(N3CCOCC3)c(F)c2)C(=O)O1 [linezolid] + NC(=O)c1cnccn1 [pyrazinamide]	0.0934
COc1nc2ccc(Br)cc2cc1[C@@H](c1ccccc1)[C@@](O)(CCN(C)C)c1cccc2ccccc12 [bedaquiline] + CC[C@@H](CO)NCCN[C@@H](CC)CO [ethambutol] + O=[N+]([O-])c1cn2c(n1)OC[C@@H](OCc1ccc(OC(F)(F)F)cc1)C2 [pretomanid]	0.139

Now look at this entry.
For COc1c(N2C[C@@H]3CCCN[C@@H]3C2)c(F)cc2c(=O)c(C(=O)O)cn(C3CC3)c12 [moxifloxacin] + O=[N+]([O-])c1cn2c(n1)OC[C@@H](OCc1ccc(OC(F)(F)F)cc1)C2 [pretomanid] + CO[C@H]1/C=C/O[C@@]2(C)Oc3c(C)c(O)c4c(O)c(c(/C=N/N5CCN(C6CCCC6)CC5)c(O)c4c3C2=O)NC(=O)/C(C)=C\C=C\[C@H](C)[C@H](O)[C@@H](C)[C@@H](O)[C@@H](C)[C@H](OC(C)=O)[C@@H]1C [rifapentine] , what is its reported AUC25? 0.116
